Data credit: ChEMBL document CHEMBL1158073

Measured pIC50 of individual entries
Test system: NCI-H187
Procedure Summary: Cytotoxicity against human NCI-H187 cells by colorimetric method
Format: functional, cell-based
pIC50: −log10 of the molar value.

CS[C@@]12CC3=CC=C[C@H](O)[C@H]3N1C(=O)[C@]1(SC)CC3=COC=C[C@H](O)[C@H]3N1C2=O	< 4.34
CCCC(=O)CC/C=C/[C@H](O)[C@@H]1O[C@H]1CO	< 4.52

Consider the additional molecule presented here.
Query block: State its pIC50: CC(O)CCC/C=C/C(O)C(O)/C=C/c1c(CC(O)C(C)(C)O)ccc(O)c1C=O (stereo not drawn)
Result block: < 4.33
